Each entry below carries its reported IC50.
TARGET_SYSTEM: UniProt:Q9NWZ3

Some entries whose results are on file:
>  <COMPOUND>
CCC[C@H](N)c1cccc(-c2cc(OCC)c3cnn(-c4nccc(C(F)(F)F)n4)c3c2)n1

>  <MEASUREMENT_TYPE>
IC50

>  <MEASURED>
< 0.1 µM

$$$$
>  <COMPOUND>
CC(O)CNC(=O)c1cccc(-n2ncc3ccc(-c4cncc(N)c4)cc32)n1 (stereo not drawn)

>  <MEASUREMENT_TYPE>
IC50

>  <MEASURED>
1 to 10 µM

$$$$
>  <COMPOUND>
CC(=O)c1cccc(-c2cc(Cl)c3cnn(-c4cccc(C)n4)c3c2)n1

>  <MEASUREMENT_TYPE>
IC50

>  <MEASURED>
1 to 10 µM

$$$$

Notebook: pull reported IC50 for UniProt:Q9NWZ3, entry CCC[C@H](N)c1cccc(-c2ccc3cnn(-c4cccc(CF)n4)c3c2)n1
< 0.1 µM

Notebook: pull reported IC50 for UniProt:Q9NWZ3, entry Cc1cccc(-n2ncc3ccc(-c4cccc5c4CCN(C)C5)cc32)n1
1 to 10 µM

Notebook: pull reported IC50 for UniProt:Q9NWZ3, entry CC(N)c1cccc(-c2ccc3cnn(-c4cccc(C(N)=O)n4)c3c2)n1 (stereo not drawn)
< 0.1 µM

Notebook: pull reported IC50 for UniProt:Q9NWZ3, entry N#CC(N)c1cccc(-c2ccc3cnn(-c4cccc(CO)n4)c3c2)n1 (stereo not drawn)
1 to 10 µM

---

TARGET_SYSTEM: IRAK4 (Homo sapiens (Human))
pIC50: −log10 of the molar value.
Each entry below carries its reported pIC50.

>  <COMPOUND>
Cn1ccc(-c2cc(-c3cccc([C@@H](N)CCCO)n3)cc3c2cnn3-c2cccc(CO)n2)n1

>  <TARGET_SYSTEM>
IRAK4 (Homo sapiens (Human))

>  <pIC50>
> 7.00

$$$$
>  <COMPOUND>
Nc1cncc(-c2ccc3cnn(-c4cccc(C(=O)N5CC(O)C5)n4)c3c2)c1

>  <TARGET_SYSTEM>
IRAK4 (Homo sapiens (Human))

>  <pIC50>
6.00 to 7.00

$$$$
>  <COMPOUND>
NC1CCCc2ccc(-c3ccc4cnn(-c5cccc(C(F)(F)F)n5)c4c3)nc21 (stereo not shown)

>  <TARGET_SYSTEM>
IRAK4 (Homo sapiens (Human))

>  <pIC50>
> 7.00

$$$$
>  <COMPOUND>
CS(=O)(=O)CC(N)c1cccc(-c2ccc3cnn(-c4cccc(CO)n4)c3c2)n1 (stereo not shown)

>  <TARGET_SYSTEM>
IRAK4 (Homo sapiens (Human))

>  <pIC50>
> 7.00

$$$$
>  <COMPOUND>
C[C@H](N)c1cccc(-c2cc(-n3cccn3)c3cnn(-c4cccc(CO)n4)c3c2)n1

>  <TARGET_SYSTEM>
IRAK4 (Homo sapiens (Human))

>  <pIC50>
> 7.00

$$$$
>  <COMPOUND>
Cc1cccc(-n2ncc3ccc(-c4ccccn4)cc32)n1

>  <TARGET_SYSTEM>
IRAK4 (Homo sapiens (Human))

>  <pIC50>
6.00 to 7.00

$$$$

Now for another entry.
Notebook: pull reported pIC50 for IRAK4 (Homo sapiens (Human)), entry N#CCNC(=O)c1cc(-c2ccc3cnn(-c4cccc(C(F)(F)F)n4)c3c2)cc(N)n1
6.00 to 7.00

---

# IC50 measurements, system: IRAK4 (Homo sapiens (Human), UniProt Q9NWZ3)
# Sequence (Q9NWZ3 whole entry, species assumed): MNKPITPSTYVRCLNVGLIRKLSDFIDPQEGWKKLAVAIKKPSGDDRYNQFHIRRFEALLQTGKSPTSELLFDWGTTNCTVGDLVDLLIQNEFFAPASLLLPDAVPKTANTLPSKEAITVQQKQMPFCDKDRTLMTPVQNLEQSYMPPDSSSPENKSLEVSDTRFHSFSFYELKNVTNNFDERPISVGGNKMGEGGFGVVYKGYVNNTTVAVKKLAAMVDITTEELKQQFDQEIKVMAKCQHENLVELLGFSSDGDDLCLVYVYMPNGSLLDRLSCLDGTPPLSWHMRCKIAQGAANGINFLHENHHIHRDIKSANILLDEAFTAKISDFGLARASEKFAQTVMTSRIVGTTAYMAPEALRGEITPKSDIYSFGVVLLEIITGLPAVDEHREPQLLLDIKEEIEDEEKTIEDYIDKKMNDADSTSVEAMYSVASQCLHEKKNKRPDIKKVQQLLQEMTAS

Some entries whose results are on file:
>  <MOLECULE>
Cc1cccc(-n2ncc3c(C4CC4)cc(-c4cccc(C(C)N)n4)cc32)n1 (centres unmarked) [Example 107]

>  <IC50>
100 to 1000 nM

$$$$
>  <MOLECULE>
N#Cc1cccc(-n2ncc3ccc(-c4cncc(N)c4)cc32)c1 [Example 33]

>  <IC50>
100 to 1000 nM

$$$$
>  <MOLECULE>
CC(=O)NCc1cc(-c2cccc(C(C)N)n2)cc2c1cnn2-c1cccc(C)n1 (centres unmarked) [Example 105]

>  <IC50>
100 to 1000 nM

$$$$
>  <MOLECULE>
Cc1cccc(-n2ncc3ccc(-c4cccc(N)c4)cc32)n1 [Example 8]

>  <IC50>
100 to 1000 nM

$$$$
>  <MOLECULE>
Cc1cccc(-n2ncc3ccc(-c4cc(N)ccn4)cc32)n1 [Example 3]

>  <IC50>
1000 to 10000 nM

$$$$
>  <MOLECULE>
CCC[C@H](N)c1cccc(-c2cc(N3CC(CO)(CCl)C3)c3cnn(-c4cccc(CO)n4)c3c2)n1 [Example 332]

>  <IC50>
< 100 nM

$$$$
>  <MOLECULE>
CCC[C@H](N)c1cccc(-c2cc(OCCOC)c3cnn(-c4cccc(CO)n4)c3c2)n1 [Example 476]

>  <IC50>
< 100 nM

$$$$
>  <MOLECULE>
NC(c1cccc(-c2ccc3cnn(-c4cccc(C(F)(F)F)n4)c3c2)n1)C1CC1 (centres unmarked) [Example 128]

>  <IC50>
< 100 nM

$$$$
>  <MOLECULE>
COC(=O)CC(N)c1cccc(-c2ccc3cnn(-c4cccc(C)n4)c3c2)n1 (centres unmarked) [Example 261]

>  <IC50>
< 100 nM

$$$$
>  <MOLECULE>
CCC[C@H](N)c1cccc(-c2cc(OCC(C)(C)O)c3cnn(-c4cccc(CO)n4)c3c2)n1 [Example 471]

>  <IC50>
< 100 nM

$$$$

Notebook: pull reported IC50 for IRAK4 (Homo sapiens (Human), UniProt Q9NWZ3), entry C[C@@H](N)c1cccc(-c2ccc3cnn(-c4cccc(CO)n4)c3c2)n1 [Example 144]
< 100 nM

Notebook: pull reported IC50 for IRAK4 (Homo sapiens (Human), UniProt Q9NWZ3), entry CN(C)CCNC(=O)c1cccc(-n2ncc3ccc(-c4cncc(N)c4)cc32)n1 [Example 69]
1000 to 10000 nM

Notebook: pull reported IC50 for IRAK4 (Homo sapiens (Human), UniProt Q9NWZ3), entry C[C@H](N)c1cccc(-c2cc(-c3cnn(C(F)(F)F)c3)c3cnn(-c4cccc(CO)n4)c3c2)n1 [Example 376]
< 100 nM

Notebook: pull reported IC50 for IRAK4 (Homo sapiens (Human), UniProt Q9NWZ3), entry CNC(=O)c1cc(-c2cncc(N)c2)cc2c1cnn2-c1cccc(C(F)(F)F)n1 [Example 61]
< 100 nM

Notebook: pull reported IC50 for IRAK4 (Homo sapiens (Human), UniProt Q9NWZ3), entry CC[C@@H](N)c1cccc(-c2ccc3cnn(-c4cccc(CO)n4)c3c2)n1 [Example 322]
< 100 nM

Notebook: pull reported IC50 for IRAK4 (Homo sapiens (Human), UniProt Q9NWZ3), entry CC(N)c1cccc(-c2ccc3cnn(-c4cccc(C(F)F)n4)c3c2)n1 (stereo in doubt) [Example 529]
< 100 nM

Notebook: pull reported IC50 for IRAK4 (Homo sapiens (Human), UniProt Q9NWZ3), entry CN(C)C(=O)c1cc(-c2cncc(N)c2)cc2c1cnn2-c1cccc(C(F)(F)F)n1 [Example 60]
1000 to 10000 nM

---

# IC50 measurements, system: IRAK4 (Homo sapiens (Human), UniProt Q9NWZ3)

Fill in: IC50 of CNC(=O)c1cc(-c2cccc(C(C)N)n2)cc2c1cnn2-c1cccc(C(F)(F)F)n1 (stereo not drawn) [Example 59] is ___
< 100 nM

Fill in: IC50 of COCc1cccc(-n2ncc3ccc(-c4cccc(C(C)N)n4)cc32)n1 (stereo not drawn) [Example 279] is ___
< 100 nM

Fill in: IC50 of CC(N)c1cccc(-c2ccc3cnc(-c4cccc(CO)n4)n3c2)n1 (stereo not drawn) [Example 302] is ___
< 100 nM

Recorded values, source patent US10246456B2.
